Listed sequences paired with reported phosphorylation enrichment
Tested on: c-Abl (mouse)
assay.name: phosphorylation enrichment, bacterial display (enrichment ratio); higher = better substrate or ligand; peptides without Tyr show the background
The reply should be a number, written without any unit.

Example sequences with recorded phosphorylation enrichment:
>>> meas_value("IEPGIYIPEDD [XPNPEP3_Y455]")
1.05
>>> meas_value("LPSKDYAEVGR [HP_Y272]")
0.726
>>> meas_value("EALDFCGEVRT [PTEN_Y155_Y155C]")
0.984
>>> meas_value("VSYGEYRYRSV [CFTR_Y515_D513G]")
0.605
>>> meas_value("ADRNHYRRFPR [YBX1_Y145_YF]")
0.871

Can you look up the measured phosphorylation enrichment of GIKAAYEAERG [LMNA_Y81_L85R] for me?
0.475

Could you tell me which phosphorylation enrichment is on file for HVIKLYGACSQ [RET_Y791] ?
1.1

So what's the measured phosphorylation enrichment for this one? KGIDRYNPENL [EIF3K_Y21]
0.456

Consider the sequence shown here: IMAFFYMCDSA [CASD1_Y382_R386S_YF] What is its recorded phosphorylation enrichment?
1.11

// returns reported phosphorylation enrichment for input PSAELYSYALP [PDGFRB_Y716_N718Y]
1.55

Requested field: phosphorylation enrichment. Item: NAGAFYVLSTL [FLVCR2_Y325_A326V]
0.69

Which phosphorylation enrichment is reported for this sequence? NAGAFYALSTL [FLVCR2_Y325]
0.608

###

tested.on: FGFR1 (UniProt P11362)
Sequence (P11362 whole entry, looked up): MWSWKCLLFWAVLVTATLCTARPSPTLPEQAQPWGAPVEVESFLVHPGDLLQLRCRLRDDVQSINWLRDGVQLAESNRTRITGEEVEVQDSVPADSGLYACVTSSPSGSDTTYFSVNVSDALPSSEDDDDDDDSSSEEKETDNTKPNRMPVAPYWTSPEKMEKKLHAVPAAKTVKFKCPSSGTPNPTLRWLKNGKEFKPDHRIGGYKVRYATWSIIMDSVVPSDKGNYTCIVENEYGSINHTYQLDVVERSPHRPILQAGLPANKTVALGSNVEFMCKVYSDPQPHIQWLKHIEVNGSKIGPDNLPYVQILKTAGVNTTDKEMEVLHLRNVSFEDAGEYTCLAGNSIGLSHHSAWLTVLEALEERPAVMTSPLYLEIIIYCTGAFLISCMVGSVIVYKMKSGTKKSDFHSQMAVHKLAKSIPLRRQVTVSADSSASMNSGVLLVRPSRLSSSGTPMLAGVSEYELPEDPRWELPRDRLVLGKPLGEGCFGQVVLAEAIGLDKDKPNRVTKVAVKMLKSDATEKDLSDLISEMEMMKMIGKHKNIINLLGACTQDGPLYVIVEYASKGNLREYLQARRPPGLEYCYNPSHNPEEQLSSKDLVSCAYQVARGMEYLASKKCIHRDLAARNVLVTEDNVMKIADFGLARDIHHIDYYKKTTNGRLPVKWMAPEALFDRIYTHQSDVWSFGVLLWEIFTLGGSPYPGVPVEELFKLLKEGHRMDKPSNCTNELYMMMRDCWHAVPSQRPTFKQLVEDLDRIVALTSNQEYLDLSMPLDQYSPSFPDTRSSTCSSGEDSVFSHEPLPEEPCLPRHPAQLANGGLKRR
assay.name: phosphorylation enrichment, bacterial display (enrichment ratio); higher = better substrate or ligand; peptides without Tyr show the background
Mark Criterion met for reported phosphorylation enrichment of 0.5 or greater; mark Criterion not met for anything smaller.

Please review the following examples before continuing.
>>> qualitative_label("ENAGFYFQVSA")
"Criterion not met"
>>> qualitative_label("TVHCDYLNISH [TAF1L_Y1385_P1389S]")
"Criterion met"
>>> qualitative_label("AERKLYSGAQT [ZAP70_Y178]")
"Criterion not met"

Shifting focus to the sequence that follows.
Item VVAHQYSFAPD [TNS3_Y601] with phosphorylation enrichment of 0.5 or above?
Criterion met

###

tested.on: c-Src SH2
assay.name: SH2 binding enrichment of the phosphorylated peptide, bacterial display (enrichment ratio); higher = better substrate or ligand; peptides without Tyr show the background
Hi all, reminder that labels come from SH2 binding enrichment, split as 1 = under 0.5, 2 = from 0.5 up to 0.7, 3 = 0.7 and over

Solved cases (6 shown):
>>> qualitative_label("IDPYTYTPFGS [CYP3A4_Y432_I431T]")
3
>>> qualitative_label("FYDANCDGKEY [MAPRE2_Y162_Y162C]")
2
>>> qualitative_label("LGNFNYEQRGA [API5_Y497]")
1
>>> qualitative_label("SVTCTYSPARN [TP53_Y126_L130R]")
1
>>> qualitative_label("CTTLHYNFMCN [TP53_Y234_I232L_YF]")
3
>>> qualitative_label("NTCNRYCCDEI [ITGB3_Y660_R662C]")
2

Which class holds FRRITYFNWRH [PDE6B_Y556_H557Y_YF] ?
1

Please report the category associated with GEDDVYDSVPG [FGR_opt_2018] , nothing else.
2

GET /class?item= QMVGMYASSFM [AVPR2_Y124_YF]
2

Band for the recorded SH2 binding enrichment of ESLRRYLENGK [HLA-B_Y195_W191S] ?
1
